# ASSAY_METHOD_TEXT: in vitro
# CONDITION: human
READOUT_NAME: CC50

Item under review: "Cc1[nH]c2ccc(-c3nnc(SCC(=O)N4CCCC4)o3)cc2c1C" . Reported CC50? > 100 µM
